Target: T1, VEGFR-2-Fc (UniProt P35968 20-322)
T1 construct: domain: first 3 Ig domains; conditioned supernatant of 293T cells; also called VEGFR-2-Fc fusion protein; not shown: Fc fragment of the pIg vector
T1 sequence (P35968 20-322): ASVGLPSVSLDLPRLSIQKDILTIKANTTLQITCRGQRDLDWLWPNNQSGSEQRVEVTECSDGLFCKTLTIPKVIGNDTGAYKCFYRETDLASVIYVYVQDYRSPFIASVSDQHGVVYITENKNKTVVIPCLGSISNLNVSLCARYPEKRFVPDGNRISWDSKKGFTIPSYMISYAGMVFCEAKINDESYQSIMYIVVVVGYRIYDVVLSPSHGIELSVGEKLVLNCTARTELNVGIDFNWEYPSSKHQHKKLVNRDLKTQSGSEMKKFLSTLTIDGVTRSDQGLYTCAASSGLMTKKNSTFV
Experiment: receptor-Fc IP

# binder, binding result
measured = [
    ("53-8 (ligand) AHYNTEILKSIDNEWRKTQCMPIETLVDIFQEYPDEIEYIFKPPCVSVYRCGGCCNSEGLQCMNTSTSYLSKTLFEIKPHQGQHIGEMSFANHTSCRCMSKLD", "no binding"),
    ("13-13 (ligand) GQNHHEVVKFMDVYQRSYCHPIETLVDIFQEYPDEIEYIFKPPCVSVYRCGGCCNDEGLECVPTEESNITMQIMRITVPLSQGPKPVTISFANHTSCRCMSKLD", "no binding"),
    ("64-15 (ligand) GQNHHEVVKFMDVYQRSYCHPREVCIDVGKEFGVATNTFFKPSCVPLMRCGGCCNSEGLQCVPTEESNITMQIMRITVPLSQGPKPVTISFANHTSCRCMSKLD", "no binding"),
    ("11-7 (ligand) GQNHHEVVKFMDVYQRSYCHPIETLVDIFQEYPDEIEYIFKPSCVPLMRCGGCCNSEGLQCVPTEESNITMQIMRIKPHQGQHIGEMSFANHTSCRCMSKLD", "binds"),
]
